Recorded below: pIC50, system Cathepsin B (Homo sapiens) (UniProt P07858).
Results filed as inconclusive are left out.
pIC50 field: float, defined as -log10 of concentration (mol/L).

>>> df
                                   compound  observed
0  Cc1ccc(S(=O)(=O)n2nc(OC(=O)c3cccs3)cc2N)cc1      5.70
1  O=S(=O)(/N=S1/CC=CCN1S(=O)(=O)c1ccccc1)c1ccccc1 (stereo unspecified)      5.03

In the following, a different compound is considered.
Q. Return pIC50 measured with Cathepsin B (Homo sapiens) (UniProt P07858) given this compound: Cc1ccc(S(=O)(=O)n2nc(OC(=O)c3ccco3)cc2N)cc1
A. 5.76

====

List of IC50 tested on Cathepsin B (Homo sapiens).
Results filed as inconclusive are left out.

Q. Bench note: what IC50 did Nc1nc2n(n1)C1(CCCCC1)C1=C(CCCC1)N2 show?
A. 12900 nM

Q. State the recorded IC50 for this entry: Nc1cc(OC(=O)c2ccco2)nn1S(=O)(=O)c1ccc(F)cc1
A. 1260 nM

Q. Could you tell me which IC50 is on file for Nc1cc(OC(=O)c2cccs2)nn1S(=O)(=O)c1ccccc1 ?
A. 247 nM

Data origin: PubChem BioAssay AID830
